# Test system: giant foxtail
# protocol: Test B preemergence/postemergence greenhouse plant response rating 0 to 10
# Type: in vivo, Setaria faberii
# measurementContext: POSTEMERGENCE, Rate 50 g/ha; 0 to 10 scale
The entries below are paired with their reported Plant response rating, Giant foxtail.
measuredQuantity: Plant response rating, Giant foxtail

Fc1cc(Cl)c(OCCCl)cc1-c1nn2c(c1Cl)CCCC2 4
COCN1C(=O)COc2cc(F)c(-c3nn4c(c3Br)CCCC4)cc21 6
CCCCN1C(=O)COc2cc(F)c(-c3nn4c(c3Cl)CCCC4)cc21 6
C=CCOc1cc(-c2nn3c(c2Br)CCCC3)c(F)cc1Cl 5

----------
# System: lambsquarters
# protocol: Test C preemergence/postemergence greenhouse plant response rating 0 to 100
# Format: in vivo, Chenopodium album
# measurementContext: POSTEMERGENCE, 62 g/ha, 0 to 100 scale
# Text: The compounds evaluated in this test were formulated in a non-phytoxic solvent and applied to the soil surface before plant seedlings emerged (preemergence application), to water that covered the soil surface (flood application), and to plants that were in the one-to-four leaf stage (postemergence application). A sandy loam soil was used for the preemergence and postemergence tests, while a silt loam soil was used in the flood test. […]
# Plant response rating Lambsquarters per record follows

compound	measuredOn	Plant response rating Lambsquarters
C=C(Cl)COc1cc(-c2nn3c(c2Cl)CCCC3)c(F)cc1Cl [Compound 40]	lambsquarters	80
Fc1cc(Cl)c(OCCCl)cc1-c1nn2c(c1Cl)CCCC2 [Compound 49]	lambsquarters	100
C#CCOc1cc(-c2nn3c(c2Br)CCCC3)c(F)cc1Cl [Compound 26]	lambsquarters	100
COC(=O)C(C)Oc1cc(-c2nn3c(c2Cl)CCCC3)c(F)cc1Cl (stereo not drawn) [Compound 28]	lambsquarters	80
C#CCN1C(=O)COc2cc(F)c(-c3nn4c(c3Cl)CCCC4)cc21 [Compound 34]	lambsquarters	100
COC(=O)c1cc(-c2nn3c(c2Cl)CCCC3)c(F)cc1Cl [Compound 43]	lambsquarters	100
CC(C)OC(=O)COc1cc(-c2nn3c(c2Cl)CCCC3)c(F)cc1Cl [Compound 39]	lambsquarters	100
C=CCN1C(=O)COc2cc(F)c(-c3nn4c(c3Cl)CCCC4)cc21 [Compound 33]	lambsquarters	100
C#CCN1C(=O)COc2cc(F)c(-c3nn4c(c3Br)CCCC4)cc21 [Compound 56]	lambsquarters	100

----------
# Tested on: morningglory
# protocol: Test C preemergence/postemergence greenhouse plant response rating 0 to 100
# Format: in vivo, Ipomoea hederacea
# measurementContext: POSTEMERGENCE, 62 g/ha, 0 to 100 scale
measuredQuantity: Plant response rating, Morningglory

C=CCN1C(=O)COc2cc(F)c(-c3nn4c(c3Cl)CCCC4)cc21 100
CCCN1C(=O)COc2cc(F)c(-c3nn4c(c3Cl)CCCC4)cc21 100
CC(C)OC(=O)COc1cc(-c2nn3c(c2Cl)CCCC3)c(F)cc1Cl 100
Fc1cc(Cl)c(OCCCl)cc1-c1nn2c(c1Cl)CCCC2 100
C#CCN1C(=O)COc2cc(F)c(-c3nn4c(c3Br)CCCC4)cc21 100
CC(C)Oc1cc(-c2nn3c(c2Br)CCCC3)c(F)cc1Cl 95
COc1cc(-c2nn3c(c2Cl)CCCC3)c(F)cc1Cl 80
